Taken from patent US20260130395A1.

# Assay comment: Stability of cannabinoid compounds and Vitamin E components in Beverage 2 (AB Red) by LCMSMS
# Format: physicochemical
# Particulars: stored at 8° C., 390 days
Readout name: Stability of Plant-Derived Cannabinoid Compounds in AB Red (µg/mL)
API: value field is a number in µg/mL; no unit string.

The recorded Stability of Plant-Derived Cannabinoid Compounds in AB Red for entry CCCCCc1cc(O)c(C/C=C(\C)CCC=C(C)C)c(O)c1 equals 4.55

The recorded Stability of Plant-Derived Cannabinoid Compounds in AB Red for entry C=C(C)[C@@H]1CCC(C)=C[C@H]1c1c(O)cc(CCC)cc1O equals 0.194

The recorded Stability of Plant-Derived Cannabinoid Compounds in AB Red for entry CCCCCc1cc(O)c2c(c1)OC(C)(C)c1ccc(C)cc1-2 equals 2.72

The recorded Stability of Plant-Derived Cannabinoid Compounds in AB Red for entry CCCCCc1cc2c(c(O)c1C(=O)O)[C@@H]1C=C(C)CC[C@H]1C(C)(C)O2 [D9 THCA, delta-9-tetrahydrocannabinolic acid] equals 1.29

====

# Assay comment: Stability of cannabinoid entourage and Vitamin E components of the powder concentrate by LCMSMS
# Type: physicochemical
# Particulars: powder stored at 21-25° C.; 24 days
Exercise: for every item that follows, state its recorded Stability of Plant-Derived Cannabinoid Compounds in Powder Concentrate.
API: value field is a number in mg/g powder; no unit string.

The recorded Stability of Plant-Derived Cannabinoid Compounds in Powder Concentrate for entry CCCCCc1cc(O)c2c(c1)OC(C)(C)[C@@H]1CCC(C)=C[C@@H]21 [D9 THC, delta-9-tetrahydrocannabinol, reference compound] equals 2.60

The recorded Stability of Plant-Derived Cannabinoid Compounds in Powder Concentrate for entry CCCCCc1cc(O)c2c(c1)OC(C)(C)c1ccc(C)cc1-2 equals 0.465

The recorded Stability of Plant-Derived Cannabinoid Compounds in Powder Concentrate for entry C=C(C)[C@@H]1CCC(C)=C[C@H]1c1c(O)cc(CCC)cc1O equals 0.051

====

# Assay comment: Stability of cannabinoid compounds and Vitamin E components in Beverage 1 (AB White) by LCMSMS
# Type: physicochemical
# Particulars: AB White stored at 21-25° C.; 240 days
Quick rule: Stability of Plant-Derived Cannabinoid Compounds in AB White, 21-25° C. of at least 2 µg/mL means met, below that means not met.

Can CCCCCc1cc2c(c(O)c1C(=O)O)[C@@H]1C=C(C)CC[C@H]1C(C)(C)O2 [D9 THCA, delta-9-tetrahydrocannabinolic acid] be said to have Stability of Plant-Derived Cannabinoid Compounds in AB White, 21-25° C. at or above 2 µg/mL?
not met

Can C=C(C)[C@@H]1CCC(C)=C[C@H]1c1c(O)cc(CCC)cc1O [CBDV, cannabidivarin] be said to have Stability of Plant-Derived Cannabinoid Compounds in AB White, 21-25° C. at or above 2 µg/mL?
not met

Can CCCCCc1cc(O)c2c(c1)OC(C)(C)c1ccc(C)cc1-2 [CBN, cannabinol] be said to have Stability of Plant-Derived Cannabinoid Compounds in AB White, 21-25° C. at or above 2 µg/mL?
met

Can CCCCCc1cc(O)c2c(c1)OC(C)(CCC=C(C)C)C=C2 (stereo not drawn) [CBC, cannabichromene] be said to have Stability of Plant-Derived Cannabinoid Compounds in AB White, 21-25° C. at or above 2 µg/mL?
not met

Can CCCCCc1cc(O)c(C/C=C(\C)CCC=C(C)C)c(O)c1 [CBG, cannabigerol] be said to have Stability of Plant-Derived Cannabinoid Compounds in AB White, 21-25° C. at or above 2 µg/mL?
met

Can CCCCCc1cc(O)c2c(c1)OC1(C)CCC3C1C2C3(C)C (stereo not drawn) [CBL, cannabicyclol] be said to have Stability of Plant-Derived Cannabinoid Compounds in AB White, 21-25° C. at or above 2 µg/mL?
not met

Can C=C(C)[C@@H]1CCC(C)=C[C@H]1c1c(O)cc(CCCCC)c(C(=O)O)c1O [CBDA, cannabidiolic acid] be said to have Stability of Plant-Derived Cannabinoid Compounds in AB White, 21-25° C. at or above 2 µg/mL?
not met

Can CCCc1cc(O)c2c(c1)OC(C)(C)[C@@H]1CCC(C)=C[C@@H]21 [THCV, delta-9-tetrahydrocannabivarin] be said to have Stability of Plant-Derived Cannabinoid Compounds in AB White, 21-25° C. at or above 2 µg/mL?
met

Can CCCCCc1cc(O)c2c(c1)OC(C)(C)[C@@H]1CCC(C)=C[C@@H]21 [D9 THC, delta-9-tetrahydrocannabinol, reference compound] be said to have Stability of Plant-Derived Cannabinoid Compounds in AB White, 21-25° C. at or above 2 µg/mL?
met

====

# Assay comment: Stability of cannabinoid compounds and Vitamin E components in Beverage 1 (AB White) by LCMSMS
# Type: physicochemical
# Particulars: AB White stored at 8° C.; 570 days
Exercise: for every item that follows, state its recorded Stability of Plant-Derived Cannabinoid Compounds in AB White, 8° C..
API: value field is a number in µg/mL; no unit string.

The recorded Stability of Plant-Derived Cannabinoid Compounds in AB White, 8° C. for entry C=C(C)[C@@H]1CCC(C)=C[C@H]1c1c(O)cc(CCCCC)c(C(=O)O)c1O equals 1.60

The recorded Stability of Plant-Derived Cannabinoid Compounds in AB White, 8° C. for entry CCCCCc1cc2c(c(O)c1C(=O)O)[C@@H]1C=C(C)CC[C@H]1C(C)(C)O2 [D9 THCA, delta-9-tetrahydrocannabinolic acid] equals 0.872

The recorded Stability of Plant-Derived Cannabinoid Compounds in AB White, 8° C. for entry CCCCCc1cc(O)c(C/C=C(\C)CCC=C(C)C)c(O)c1 equals 4.46

====

# Assay comment: Stability of cannabinoid compounds and Vitamin E components in Beverage 2 (AB Red) by LCMSMS
# Assay type: physicochemical
# Particulars: stored at 21-25° C., 23 days
Readout name: Stability of Plant-Derived Cannabinoid Compounds in AB Red (µg/mL)
API: value field is a number in µg/mL; no unit string.

The recorded Stability of Plant-Derived Cannabinoid Compounds in AB Red for entry C=C(C)[C@@H]1CCC(C)=C[C@H]1c1c(O)cc(CCCCC)c(C(=O)O)c1O equals 1.63

The recorded Stability of Plant-Derived Cannabinoid Compounds in AB Red for entry CCCCCc1cc2c(c(O)c1C(=O)O)[C@@H]1C=C(C)CC[C@H]1C(C)(C)O2 [D9 THCA, delta-9-tetrahydrocannabinolic acid] equals 1.36

The recorded Stability of Plant-Derived Cannabinoid Compounds in AB Red for entry C=C(C)[C@@H]1CCC(C)=C[C@H]1c1c(O)cc(CCC)cc1O equals 0.19

The recorded Stability of Plant-Derived Cannabinoid Compounds in AB Red for entry CCCCCc1cc(O)c2c(c1)OC(C)(C)[C@@H]1CCC(C)=C[C@@H]21 [D9 THC, delta-9-tetrahydrocannabinol, reference compound] equals 12.9

The recorded Stability of Plant-Derived Cannabinoid Compounds in AB Red for entry CCCCCc1cc(O)c2c(c1)OC(C)(C)c1ccc(C)cc1-2 equals 2.82

The recorded Stability of Plant-Derived Cannabinoid Compounds in AB Red for entry CCCc1cc(O)c2c(c1)OC(C)(C)[C@@H]1CCC(C)=C[C@@H]21 [THCV, delta-9-tetrahydrocannabivarin] equals 3.23

The recorded Stability of Plant-Derived Cannabinoid Compounds in AB Red for entry CCCCCc1cc(O)c2c(c1)OC1(C)CCC3C1C2C3(C)C (stereo not drawn) equals 0.51

The recorded Stability of Plant-Derived Cannabinoid Compounds in AB Red for entry CCCCCc1cc(O)c(C/C=C(\C)CCC=C(C)C)c(O)c1 equals 4.67

The recorded Stability of Plant-Derived Cannabinoid Compounds in AB Red for entry CCCCCc1cc(O)c2c(c1)OC(C)(CCC=C(C)C)C=C2 (stereo not drawn) equals 0.28

====

# Assay comment: Stability of cannabinoid entourage and Vitamin E components of the powder concentrate by LCMSMS
# Type: physicochemical
# Particulars: powder stored at 21-25° C.; 1 days
Label scheme for Stability of Plant-Derived Cannabinoid Compounds in Powder Concentrate: low: < 0.1 mg/g powder; moderate: ≥ 0.1 mg/g powder and < 0.7 mg/g powder; high: ≥ 0.7 mg/g powder

Category lookup for the compound CCCCCc1cc(O)c2c(c1)OC(C)(C)[C@@H]1CCC(C)=C[C@@H]21 [D9 THC, delta-9-tetrahydrocannabinol, reference compound]
high

Category lookup for the compound CCCCCc1cc(O)c2c(c1)OC(C)(CCC=C(C)C)C=C2 (stereo not shown)
low

Category lookup for the compound CCCCCc1cc(O)c2c(c1)OC1(C)CCC3C1C2C3(C)C (stereo not shown)
low

Category lookup for the compound C=C(C)[C@@H]1CCC(C)=C[C@H]1c1c(O)cc(CCCCC)cc1O [CBD, cannabidiol, reference compound]
high

Category lookup for the compound CCCCCc1cc(O)c(C/C=C(\C)CCC=C(C)C)c(O)c1
high

Category lookup for the compound CCCCCc1cc2c(c(O)c1C(=O)O)[C@@H]1C=C(C)CC[C@H]1C(C)(C)O2 [D9 THCA, delta-9-tetrahydrocannabinolic acid]
moderate

Category lookup for the compound C=C(C)[C@@H]1CCC(C)=C[C@H]1c1c(O)cc(CCCCC)c(C(=O)O)c1O
moderate

Category lookup for the compound C=C(C)[C@@H]1CCC(C)=C[C@H]1c1c(O)cc(CCC)cc1O
low

Category lookup for the compound CCCCCc1cc(O)c2c(c1)OC(C)(C)c1ccc(C)cc1-2
moderate
